system_tested: Yap3 (UniProt P38749)
Sequence: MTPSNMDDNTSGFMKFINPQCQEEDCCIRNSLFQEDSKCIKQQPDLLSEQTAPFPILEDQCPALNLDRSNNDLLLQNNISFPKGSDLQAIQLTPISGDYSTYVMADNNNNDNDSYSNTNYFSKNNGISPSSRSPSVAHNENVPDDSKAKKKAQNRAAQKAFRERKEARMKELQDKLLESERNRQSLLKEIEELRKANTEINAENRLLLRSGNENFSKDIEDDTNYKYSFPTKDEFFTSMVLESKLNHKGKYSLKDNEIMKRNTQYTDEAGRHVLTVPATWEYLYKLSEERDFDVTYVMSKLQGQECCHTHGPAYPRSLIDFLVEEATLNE
test_name: PBM E-score (8-mer binding enrichment) (E-score (-0.5 to 0.5)); higher = stronger / more preferred TF binding
recorded_conditions: protein concentration: 100 nM; construct: GST-full length
Over roughly 33,000 sequences, “E-score (-0.5 to 0.5)” has its median near -0.0034; the highest 2% begin near 0.25. For the sample, the highest values were picked, then their nearest neighbours and some sequences at random.
Rule: PBM E-score of 0.1 or more gives 1; anything lower gives -1.

{"columns": ["sequence_string", "label_value"],
 "data": [
  ["GATATTAC", 1],
  ["ATTAAATA", 1],
  ["AAAAATAT", 1],
  ["AAATATAT", 1],
  ["AAAAATAG", 1]
]}

Is reported PBM E-score greater than or equal to 0.1 here: AAATATAC
1

----------
system_tested: Yap3 (UniProt P38749)
Sequence: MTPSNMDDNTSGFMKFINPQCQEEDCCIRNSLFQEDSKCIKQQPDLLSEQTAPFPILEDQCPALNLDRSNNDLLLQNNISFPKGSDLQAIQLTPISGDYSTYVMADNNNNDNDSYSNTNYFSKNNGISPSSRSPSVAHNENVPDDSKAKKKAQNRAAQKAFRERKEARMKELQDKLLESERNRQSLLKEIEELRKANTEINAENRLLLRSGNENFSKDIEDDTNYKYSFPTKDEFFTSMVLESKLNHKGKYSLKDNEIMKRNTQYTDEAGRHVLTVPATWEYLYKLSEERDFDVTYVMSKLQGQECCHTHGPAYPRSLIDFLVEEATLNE
test_name: PBM E-score (8-mer binding enrichment) (E-score (-0.5 to 0.5)); higher = stronger / more preferred TF binding
recorded_conditions: protein concentration: 100 nM; construct: GST-full length
Whole data set: some 33,000 sequences, median “E-score (-0.5 to 0.5)” near -0.0034, cut for the highest 2% near 0.25. The sample as a whole holds a higher share of the highest values than the screen did.
reported_property: PBM E-score
Enter the number alone.

Below are worked cases with known answers.
{"columns": ["sequence_string", "PBM E-score"],
 "data": [
  ["AAATAATT", 0.287],
  ["ATTACGTC", 0.33],
  ["CATGATTC", 0.0254],
  ["ACCAGACC", -0.206],
  ["GCATTACA", 0.1],
  ["CTCTGCAC", -0.173]
]}

Recall and state the measured PBM E-score for CTTTACTA .
0.22

Recall and state the measured PBM E-score for CAATAACA .
0.0825

----------
system_tested: Yap3 (UniProt P38749)
Sequence: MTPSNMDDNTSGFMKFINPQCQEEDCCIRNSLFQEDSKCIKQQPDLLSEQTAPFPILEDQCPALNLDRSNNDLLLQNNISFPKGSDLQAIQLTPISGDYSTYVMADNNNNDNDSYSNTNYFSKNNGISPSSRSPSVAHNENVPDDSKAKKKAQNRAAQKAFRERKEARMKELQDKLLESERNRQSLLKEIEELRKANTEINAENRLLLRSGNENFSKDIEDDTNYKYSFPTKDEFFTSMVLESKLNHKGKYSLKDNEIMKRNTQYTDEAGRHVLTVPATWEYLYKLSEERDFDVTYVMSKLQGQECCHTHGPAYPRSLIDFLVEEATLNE
test_name: PBM E-score (8-mer binding enrichment) (E-score (-0.5 to 0.5)); higher = stronger / more preferred TF binding
recorded_conditions: protein concentration: 100 nM; construct: GST-full length
Over roughly 33,000 sequences, “E-score (-0.5 to 0.5)” has its median near -0.0034; the highest 2% begin near 0.25. The sample as a whole holds a higher share of the highest values than the screen did.
Below, each of the sequences is paired with its reported PBM E-score value.
Enter the number alone.

{"columns": ["sequence_string", "val"],
 "data": [
  ["CGTTAGTA", 0.241],
  ["AGTTAGTA", 0.195],
  ["ACATTCTG", -0.0885],
  ["TCATTCGA", 0.195],
  ["ATGACTAG", 0.07],
  ["CATTAGCA", 0.0386],
  ["CATCAGAC", -0.133],
  ["CCCACACA", -0.0183]
]}

Specify PBM E-score for GTAGTTAA , system Yap3 (UniProt P38749).
0.142

Specify PBM E-score for AGAACACG , system Yap3 (UniProt P38749).
0.0921

Specify PBM E-score for GCTCCTAA , system Yap3 (UniProt P38749).
-0.265

Specify PBM E-score for ATGACTAA , system Yap3 (UniProt P38749).
0.431

Specify PBM E-score for AAAGGTCG , system Yap3 (UniProt P38749).
-0.0514

Specify PBM E-score for AACTAATG , system Yap3 (UniProt P38749).
0.23

Specify PBM E-score for CTAGATCC , system Yap3 (UniProt P38749).
-0.0756

Specify PBM E-score for ACTTGTCT , system Yap3 (UniProt P38749).
-0.0439

Specify PBM E-score for ATCTGTTG , system Yap3 (UniProt P38749).
-0.0152

Specify PBM E-score for ATGTGCAA , system Yap3 (UniProt P38749).
0.059

Specify PBM E-score for CGTGTGTA , system Yap3 (UniProt P38749).
0.172

----------
system_tested: Yap3 (UniProt P38749)
Sequence: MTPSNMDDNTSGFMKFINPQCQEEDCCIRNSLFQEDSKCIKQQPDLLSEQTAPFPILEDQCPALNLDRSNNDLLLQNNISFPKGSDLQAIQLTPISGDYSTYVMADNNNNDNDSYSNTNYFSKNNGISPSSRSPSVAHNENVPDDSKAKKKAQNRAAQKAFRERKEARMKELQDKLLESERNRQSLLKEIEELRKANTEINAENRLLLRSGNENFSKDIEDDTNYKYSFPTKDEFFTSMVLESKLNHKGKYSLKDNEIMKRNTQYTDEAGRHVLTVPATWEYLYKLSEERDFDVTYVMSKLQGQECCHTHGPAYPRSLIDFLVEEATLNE
test_name: PBM E-score (8-mer binding enrichment) (E-score (-0.5 to 0.5)); higher = stronger / more preferred TF binding
recorded_conditions: protein concentration: 100 nM; construct: GST-full length
Over roughly 33,000 sequences, “E-score (-0.5 to 0.5)” has its median near -0.0034; the highest 2% begin near 0.25. The full list was thinned out, with the highest values kept by preference.
reported_property: PBM E-score
Enter the number alone.

Below are worked cases with known answers.
{"columns": ["sequence_string", "reported_property", "val"],
 "data": [
  ["CTTTACGA", "PBM E-score", -0.0493],
  ["AATTACGG", "PBM E-score", 0.235],
  ["ACAAGTTA", "PBM E-score", 0.16],
  ["ATAAATTC", "PBM E-score", 0.153],
  ["ACGGAGGG", "PBM E-score", -0.139]
]}

Recall and state the measured PBM E-score for GCCTTTTA .
-0.0778

Recall and state the measured PBM E-score for ACTGGACC .
-0.196

Recall and state the measured PBM E-score for AAGATGAT .
0.0727

Recall and state the measured PBM E-score for AATTACAA .
0.151

Recall and state the measured PBM E-score for CATTACGA .
0.149

Recall and state the measured PBM E-score for ATAAATTG .
0.312

Recall and state the measured PBM E-score for GATTACGC .
0.108

Recall and state the measured PBM E-score for AGAAATTC .
0.0349

Recall and state the measured PBM E-score for GTGAGGCA .
0.0355

Recall and state the measured PBM E-score for ATTATATA .
0.3

Recall and state the measured PBM E-score for AGAAATTG .
0.266

----------
system_tested: Yap3 (UniProt P38749)
Sequence: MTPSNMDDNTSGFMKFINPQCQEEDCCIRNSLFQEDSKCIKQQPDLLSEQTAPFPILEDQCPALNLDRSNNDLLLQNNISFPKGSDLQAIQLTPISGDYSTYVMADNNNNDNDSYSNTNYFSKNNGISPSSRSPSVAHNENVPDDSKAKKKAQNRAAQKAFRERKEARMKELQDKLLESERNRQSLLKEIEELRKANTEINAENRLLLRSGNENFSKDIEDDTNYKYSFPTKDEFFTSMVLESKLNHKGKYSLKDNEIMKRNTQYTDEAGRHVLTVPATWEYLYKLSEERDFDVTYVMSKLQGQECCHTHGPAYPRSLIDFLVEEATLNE
test_name: PBM E-score (8-mer binding enrichment) (E-score (-0.5 to 0.5)); higher = stronger / more preferred TF binding
recorded_conditions: protein concentration: 100 nM; construct: GST-full length
In all, about 33,000 sequences were measured (“E-score (-0.5 to 0.5)”: median about -0.0034, highest 2% from about 0.25 on). This excerpt belongs to a sample that is enriched for the highest values.
Below, each of the sequences is paired with its reported PBM E-score value.

Recall and state the measured PBM E-score for CAGTATGA .
0.143
